FYI, the data here is from the domain aggregation screens of Martell et al. (2025).

Test description: soluble fraction after stress (log2 fold change); higher = more stays soluble; pooled small domains, quantitative proteomics
Cond: stress: pH 4
Binning scheme for soluble fraction (log2): bottom end = under -0.4, midrange = from -0.4 up to 0.006, top end = 0.006 and over

HMAEELELFHRLISVTGVGPKGALGFLSQLKPQEIILAILSDDVKTLSKAPGVGRKTAQRVILELKDKF    bottom end
HMETVRHFRLDWSQAADRLDKVLASLMNDVSRARIQEWIRLGAVSVNGEILTDVRAKVAGGDAIDVTPQTA    midrange
HMGLLEMPSERERQVLVLIAEGLSNKEIAARLYLTEGTVKNHAHSLYAKLNVTTRTLAIARARQLGI    bottom end
HMSGPAEDLLAIEGMDKELAYELAARGIRTRDELADQSLDELEAVPGLDPVRAGQLIMAARAHLFENAGQ    midrange
HMKPLIIPLELMQRLSSDKQLEAGFNRFSKSKQHEFAAYIAAAKRVETKVKRLEKIIPLILSGEGLNDR    top end
HMQDNDLKNQIENVLRTYPDNVFTVEKIADVLRSHGSAAFKLIVQELASLERDKVAVVTEDGKFQLNPD    top end
HMDIANEQEQIFITAMRNDDFNPILELKMKGYQPSKNVLKSLQPDVSSTTFIAAAKIFQMEGVL    bottom end
HMQLDLSDPSKNKLDSIVSLPIKSLKAVEANGEILFMSENGRFVLRGQLYDIWYKDTLDTSAQIQDAATRI    top end
HMDDPEISQEQRQQLFRTAKEHFGASGNDVLKEILADHGRDSTVKMPVSVFAEIMGDLLKRALD    midrange
HMIERVLRTEEHIEAFAGEEVEAKLFAPIDGKKTLRGILGGIEDGRVILTVGDTEYRIEHAKISRLTTVFD    bottom end
HMQIYLTPEQFKIIDFMEQMGKITVKDVMDILNIPKRTAQLHLQKLKTLKMIAQTGKGPSSAYLL    bottom end
HMIETIQVPRAFNDWHEQADKTKSVFEVYAEIEASENEKLIAWVRNNQNEFAKIWLGALIPELE    bottom end
HMKDESYALGTRLLSHALGKTKLEDLAQEKIDEVVQQSGNKTLEQLLTNIGLGNALSIGIARQLT    top end
HMTEVPSLSSLKIGDLIFYRNNKGAIAHSAIITSFYNGRPFISQHTFNALNITYVKDWASKMHFIKIW    bottom end
HMVNIEAEVGRRLRQLRARRGLSLRALADLSGLNVNTLSLIENSKTSPSVSTLQQLARSLQVPITTFFESD    top end
HMEESTYQWNNFVRDFYASRVSAQYTNKLKVAAILWHHVKNTPQSKIYHDNLVSKYAEEINYFK    midrange
HMGRRERKKLQSRRAIIEAAVTEFKEKGFREASVADIMTRADLGLGTFYNYFQSKEDILMSLLS    midrange
HMSWAGRRSLAALEARYRDETGISNLKIKHNGVLGYHIEVPSKSADKLMAPDSGFTHRQTLAGAVR    top end
HMSDAGMNQIGDMFRAPDLMAKLAMNPATREYVSQPDFLAMMEEVKRNPSALNNHLRDPRMMNVLSVAM    bottom end
HMGANAVAAFTARVRTGPSTGYPVRISVPQGRQVRVISGPYGGWYRVSYQGLTGYTYGGLLRQG    midrange
HMVGEQISYIPLKFATASEVVKSLTSMFQQQKGIAPIRIVAEERTNAILLLASEADTARVKNLIAMMDKGV    midrange
HMTKLPLLVELSRIIPTDTWVKKIKFSLGSVEFVGISKSASRLLPIVENSSYFHDTKFIGTIVT    midrange
HMKQYSFEISKADFKKISENFNFKIINEINDSLIISLNDKNINLDELLIFFVERKIKVRSIENI    bottom end
HMTTHERHEIIELLRQVGDPMRPKEISEALGKPSGAIRFLLSKLTEEGAIKKTGYGQYTYIP    midrange
HMNENDENLRQQAIDASKEVRRWGEPVTLPPMNAHDRRIIHITLEGESDLQTESTGEGNFKSVVISLK    top end
HMSIHPRDKADLGTALSKWKKGALDDKQLELEVARVFMRTYGKKLEGQALNKAVAAWVAALTQSKK    top end
HMGPESKLTDAIKDYIYALYENLKGKSKFRNTIIEEVKKLYGVDISRESIRRVVNQKTDAETTENDDDEKA    top end
HMPMTDYQLIRSNRRTIALQITRDARVVVRAPLYASEADIRRFVESHRAWIESHLDRQRARTD    top end
HMTYAQQIGARIAFLRRLKGLTLAELAERVNKHKSTISKYESGQIIIDIESLKEVADALGVDVAQIVE    top end
HMPKDLEKRAAILAAAKHLFPVHGFEGTSMDAIAALANVSKLTVYSHFKDKESLFTEAIREK    top end
HMQVSDVTELRTILEKVITENESVATEFKEGKDAAMNFLVGQGMKATRGAADPALLKEIITGIL    midrange
HMFPQVEVQLIYSYKSDRILNKMLKEFNVVILNQVFKDDILTSFHMNYSLVNQLITKIKSYPDISYKIIN    bottom end
HMAPAPYLVKVTANKLNIRSGPGTNYKIQGAITDKGTYTIVDTQGRWGKLKSGAGWIYLNYTKK    top end
